target: HLA-A*24:02; test: IEDB peptide-MHC binding, purified MHC/competitive/radioactivity; filed as Kd, often an IC50 or EC50 that approximates it; bounds were set here for any values at or beyond the usual limits of such assays; details: source organism: Dengue virus 2 Jamaica/1409/1983
quantity_measured: pKd
Answers are plain numbers, as −log10 of the molar value.

input_sequence=TYGLNTFTN recorded_measurement=5.80

Shifting focus to the sequence that follows.
Q: Recall the recorded pKd for ITAAAWYLW with HLA-A*24:02 and state it.
Result: 7.67

====

target: HLA-C*06:02; assay: IEDB peptide-MHC binding, purified MHC/direct/fluorescence; filed as Kd, often an IC50 or EC50 that approximates it; bounds were set here for any values at or beyond the usual limits of such assays; details: source organism: human gammaherpesvirus 4
quantity_measured: Kd (nM)
Numbers only, in nM.

Q: Would you kindly share the measured Kd for VTDEGTSSF ?
Result: 332
